Value source: the supplement of paper PMC6555819

Tested on: PPARg DBDmut:RXRa IVT, anti-PPARg (DBD mutation: PPARg1 K132A/R137A, NR concentration 270 nM, RXRa partner concentration 90 nM)
assaySummary: PBM binding z-score (relative to random genomic background probes); higher = stronger binding; sequences stand for … in GC…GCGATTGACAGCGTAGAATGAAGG
Each entry gets n if its PBM binding z-score stays under 0.1, and y if its PBM binding z-score is 0.1 or above.

Some solved entries appear below for comparison.
CCTACTGGGCCAAGGGCATTGATCAGTCAAAGCA | n
CAAACTTGGTCAAGAGGTCAAAGTCCGCTTCCCG | y
AGAATGAGGTTATTAAGATCAGGAAATTGCGGTC | y
CCTAGTTGGTCAAGGACACACACGCTATAGGTAC | y
CGGCAAAGTTCAACTAAGGTAACGTAAAGCACGC | n

Request: In plain terms: is recorded PBM binding z-score at least 0.1 for ACAGACAGGTGATGAAGGTGACTCAGGCTATCAT ?
Result: y

Request: How about CCTTACGGGTCAATGTTATAGCACGGGTGGTACG ?
Result: y

Request: How about CTCGAAAGTTCGGTTGAGGTGAGTATACGGATAA ?
Result: n

Request: How about CTCGAAAGGACGGTTGAGGTGAGTATACGGATAA ?
Result: y

###

System: PXR:RXRa (NR concentration 270 nM, RXRa partner concentration 90 nM)
assaySummary: PBM binding z-score (relative to random genomic background probes); higher = stronger binding; sequences stand for … in GC…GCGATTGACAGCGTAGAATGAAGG
parameterMeasured: PBM binding z-score
Answer using only a numeral; do not append any unit.

// solved cases for PBM binding z-score follow
CGAACTAGGTCAAGGACAGTGACTCTCCGCACGC | 1.37
TCTATTAGTTGAAGAGCAACCGACGAGTCCGTTT | 0.265
CAAACTAGGTCCAAGGTCAAAGTCGAGCCAACCA | 3.7
CGAGCTAGGTCATTGACAGGACAGTGAATAGTAA | 1.54

Request: Which PBM binding z-score value is on record for AGAAGGAGGTTAAGATCAGGGAAACAGAATACAT ?
Result: 1.5

###

Test system: RARb homodimer (NR concentration 270 nM)
assaySummary: PBM binding z-score (relative to random genomic background probes); higher = stronger binding; sequences stand for … in GC…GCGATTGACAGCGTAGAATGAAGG
// values below are reported PBM binding z-score
Answer using only a numeral; do not append any unit.

// solved cases for PBM binding z-score follow
TCAGACAGGTGAAGGTAACTGAGGTACGCAGTCG | 0.685
CAGCCTAGGTCAGGGCCGGTATAGGAGGAACGTT | 2.41
CCTAGCCGGCCAGGGTCACTCAAGCATTTCGCTT | 2.68

Request: Which PBM binding z-score value is on record for CATACAGGGTCAGCTAGGCCAAAGTAGGGACGGC ?
Result: 3.27

Request: How about CGTCCAAGGTCAATGATAGGTCAGTGAAAGCATT ?
Result: 4.99

Request: How about CCAGACTGGTGAGAAGGTAACTCAGCCTCGATTA ?
Result: -0.313

Request: How about TCTAGTTGGTCACGGAGGTGACACACGACGGGTA ?
Result: 1.71

Request: How about CCCAGTTGGTCAGGAGGTCACACACCGGATATGA ?
Result: 4.41
